Data origin: patent US20060263802A1

Overview of reported Binding of CRJB to linear peptide (PEPSCAN-ELISA signal) across a group of sequences:
system: human monoclonal antibody CRJB; assay type: binding
Measurement type: Binding of CRJB to linear peptide (PEPSCAN-ELISA signal)

chain_sequence=PRLGMSCDIFTNSRG measurement=112
chain_sequence=ACKLKLCGVLGLRLM measurement=117
chain_sequence=RKLVPGFGKAYTIFN measurement=115
chain_sequence=MELKVGYILAIKMNG measurement=141
chain_sequence=IEHLVVEELVRKREE measurement=129
chain_sequence=KLCGVLGLRLMDGTW measurement=132
chain_sequence=KLGPWSPIDIHHLSC measurement=105
chain_sequence=NNLVVEDEGCTNLSG measurement=99
chain_sequence=AIKMNGFTCTGVVTE measurement=103
